Assay: qHTS assay to identify small molecule agonists of the NFkB signaling pathway (AID 1159509)
Conditions: NFkB-bla ME-180 cells, beta-lactamase FRET ratio, 5 h; series mostly up to 61 µM
Inconclusive results are not listed. The source made the active and inactive calls. The call rests on the fitted dose curve; in most records, active means well fitted curve in the direction sought with a large enough effect in the signal ratio in the repeat runs (not every such curve was filed as active); inconclusive means weak or mixed curves, or a change in a side signal; inactive means no such curve, though single readings can be large or run the other way; the % refers to the signal ratio.
parameterMeasured: activation

smilesInput: On1nnc2ccccc21
activation: inactive
--
smilesInput: Cc1ccccc1N=O
activation: inactive
--
smilesInput: COCCOCCOCCOCCO
activation: inactive
--
smilesInput: C=C(C)C(=O)OCCOP(=O)(O)OCCOC(=O)C(=C)C
activation: inactive
--
smilesInput: COc1cc2c(cc1OC)[C@@H]1CC(=O)[C@@H](CC(C)C)CN1CC2
activation: inactive
--
smilesInput: C[Si](C)(C)C
activation: inactive
--
smilesInput: O=C1c2cccc3c2[C@H](CCC3)CN1[C@@H]1CN2CCC1CC2
activation: inactive
--
smilesInput: CCCCOC(=O)c1ccccc1
activation: inactive
--
smilesInput: C=CC(OCC)OCC
activation: inactive
--
smilesInput: CC(C)CCCCOC(=O)c1ccccc1C(=O)OCCCCC(C)C
activation: inactive

Q: Could you tell me which activation is on file for CCN1CCc2nc(N)oc2CC1 ?
Result: inactive

Q: Value lookup for activation; key = O=C1c2ccccc2C(=O)C1c1ccccc1
Result: inactive

Where these numbers come from: PubChem BioAssay (Tox21)
